These measurements were taken from patent US12310975B2.

target-under-test: BCL6 (Homo sapiens (Human), UniProt P41182)
measurement-protocol: Immunofluorescence high content imaging of BCL6 degradation in T47D cells
Format: cell-based
measurement-context: T47D
This listing pairs compounds with measured Dmax.

Worked examples follow.
CNC(=O)COc1cc2cc(Nc3nc(N4CCN(CC5CCN(c6ccc(C(=O)NC7CCC(=O)NC7=O)nn6)CC5)CC4)ncc3Cl)ccc2n(C)c1=O (centres unmarked) [compound 278]	< 50%
Cn1c(=O)n(CCC(C)(C)O)c2cc(Nc3nc(N4CCN(CC5CCN(c6cccc7c6C(=O)N(C6CCC(=O)NC6=O)C7=O)CC5)CC4)ncc3Cl)ccc21 (centres unmarked) [compound 505]	50 to 70%
CNC(=O)COc1cc2cc(Nc3nc(N4CCN(CC5CCN(c6ccc7c(c6)C(=O)N(C6CCC(=O)NC6=O)C7=O)CC5)C(=O)C4)ncc3Cl)ccc2n(C)c1=O (centres unmarked) [compound 201]	≥ 70%
CNC(=O)COc1cc2cc(Nc3nc(N4CCOC(CN5CCN(c6ccc7c(c6)C(=O)N(C6CCC(=O)NC6=O)C7=O)CC5)C4)ncc3Cl)ccc2n(C)c1=O (centres unmarked) [compound 272]	50 to 70%

Next compound, please.
Query string: Could you share which Dmax value was measured for CNC(=O)COc1cc2cc(Nc3nc(N4CCN(CC5(O)CCN(c6ccc7c(c6)C(=O)N(C6CCC(=O)NC6=O)C7=O)CC5)CC4)ncc3Cl)ccc2n(C)c1=O (centres unmarked) [compound 240] ?
Result string: 50 to 70%

----------
This listing pairs compounds with measured IC50.
target-under-test: BCL6 (Homo sapiens (Human), UniProt P41182)
measurement-protocol: Immunofluorescence high content imaging of BCL6 degradation in T47D cells
Type: cell-based

Worked examples follow.
CNC(=O)COc1cc2cc(Nc3nc(N4CCN(CC5CCN(c6ccc7c(c6)C(=O)N(C6CCC(=O)NC6=O)C7=O)CC5)CC4)ncc3Cl)ccc2n(C(C)C)c1=O (stereo not shown)	10 to 50 nM
CCn1c(=O)c(OCC(=O)NC)cc2cc(Nc3nc(N4CCN(C(C)(C)C5CCN(c6ccc7c(c6)C(=O)N(C6CCC(=O)NC6=O)C7=O)CC5)CC4)ncc3Cl)ccc21 (stereo not shown)	< 10 nM
CC(=O)COc1cc2cc(Nc3nc(N4CCN(C)C(COc5ccc6c(c5)C(=O)N(C5CCC(=O)NC5=O)C6=O)C4)ncc3Cl)ccc2n(C)c1=O (stereo not shown)	≥ 100 nM
CC(=O)COc1cc2cc(Nc3nc(N4CCN(CCCN5CCN(c6ccc7c(c6)C(=O)N(C6CCC(=O)NC6=O)C7=O)CC5)CC4)ncc3Cl)ccc2n(C)c1=O (stereo not shown)	10 to 50 nM
CNC(=O)COc1cc2cc(Nc3nc(N4CCN(C(C)(C)C5CCN(c6ccc7c(c6)CN(C6CCC(=O)NC6=O)C7=O)CC5)CC4)ncc3Cl)ccc2n(C)c1=O (stereo not shown)	< 10 nM
CNC(=O)COc1cc2cc(Nc3nc(N4CCC(OC5CN(c6cccc7c6C(=O)N(C6CCC(=O)NC6=O)C7=O)C5)CC4)ncc3Cl)ccc2n(C)c1=O (stereo not shown)	< 10 nM
CNC(=O)COc1cc2cc(Nc3cc(N4CCC(CN5CCN(c6ccc7c(c6)C(=O)N(C6CCC(=O)NC6=O)C7=O)CC5)CC4)ncc3Cl)ccc2n(C)c1=O (stereo not shown)	50 to 100 nM
CN1CC[C@H](Oc2cc3cc(Nc4nc(N5CCC(CN6CCN(c7ccc8c(c7)C(=O)N(C7CCC(=O)NC7=O)C8=O)CC6)CC5)ncc4Cl)ccc3n(C)c2=O)C1=O (stereo partly shown)	≥ 100 nM

Query string: Could you share which IC50 value was measured for CNC(=O)COc1cc2cc(Nc3nc(N4CCN(CCN5CCN(c6ccc7c(c6)C(=O)N(C6CCC(=O)NC6=O)C7=O)CC5)CC4)ncc3Cl)ccc2n(C)c1=O (stereo not shown) ?
Result string: 10 to 50 nM

Query string: Could you share which IC50 value was measured for CCn1c(=O)c(OCC(=O)NC)cc2cc(Nc3nc(N4CCC(CN5CC6(C5)CN(c5ccc7c(c5)C(=O)N(C5CCC(=O)NC5=O)C7=O)C6)CC4)ncc3Cl)ccc21 (stereo not shown) ?
Result string: < 10 nM

Query string: Could you share which IC50 value was measured for CC(=O)COc1cc2cc(Nc3nc(N4CCC(CN5CC(C6CN(c7ccc8c(c7)C(=O)N(C7CCC(=O)NC7=O)C8=O)C6)C5)CC4)ncc3Cl)ccc2n(C)c1=O (stereo not shown) ?
Result string: 10 to 50 nM

Query string: Could you share which IC50 value was measured for CNC(=O)COc1cc2cc(Nc3nc(N4CCN(CC5CCN(c6ccc(C(=O)NC7CCC(=O)NC7=O)nn6)CC5)CC4)ncc3Cl)ccc2n(C)c1=O (stereo not shown) ?
Result string: 50 to 100 nM

Query string: Could you share which IC50 value was measured for CC(=O)COc1cc2cc(Nc3nc(C#CC4CCN(c5cccc6c5C(=O)N(C5CCC(=O)NC5=O)C6=O)CC4)ncc3Cl)ccc2n(C)c1=O (stereo not shown) ?
Result string: 10 to 50 nM

Query string: Could you share which IC50 value was measured for CNC(=O)C1Oc2cc(Nc3nc(N4CCN(C(C)(C)C5CCN(c6ccc7c(c6)C(=O)N(C6CCC(=O)NC6=O)C7=O)CC5)CC4)ncc3Cl)ccc2N(C)C1=O (stereo not shown) ?
Result string: ≥ 100 nM

Query string: Could you share which IC50 value was measured for CNC(=O)COc1cc2cc(Nc3nc(N4CCN(CC5CCN(c6ccc(C(=O)NC7CCC(=O)NC7=O)c(OC)c6)CC5)CC4)ncc3Cl)ccc2n(C)c1=O (stereo not shown) ?
Result string: < 10 nM

Query string: Could you share which IC50 value was measured for CNC(=O)COc1cc2cc(Nc3nc(N4CCN(CC5CCN(c6cccc7c6C(=O)N(C6CCC(=O)NC6=O)C7=O)CC5)CC4)ncc3Cl)ccc2n(C(C)C)c1=O (stereo not shown) ?
Result string: < 10 nM
